# Tested on: TYK2(JH2domain-pseudokinase)
# condition: concentration: 1 μM, replicates: in singlicate; n = 1;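 further: KINOMEscan kinase panel screen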
readout.kind: %Inh (%)
Output spec: scalar in %, unitless text.

compound: Cc1ccc(C)c(NC(=O)NCCNc2ccnc(Nc3ccc(F)cc3)n2)c1
measurement: 6

Record CN1CCC(n2cnc(-c3ccc(F)cc3)c2-c2ccnc(NC3CCNCC3)n2)CC1 ; system TYK2(JH2domain-pseudokinase); %Inh = 34

Reported TYK2(JH2domain-pseudokinase) %Inh for item Cn1ccc2ncnc(Oc3ccc(NC(=O)Nc4cccnc4)c(Cl)c3)c21 was 0

Response field %Inh (TYK2(JH2domain-pseudokinase)) for item CCc1nc(-c2cccc(N(C)S(=O)(=O)c3ccccc3)c2)c(-c2ccnc(Nc3ccc(N4CCN(C(C)=O)CC4)nc3)n2)s1 : 14

%Inh of C[C@H]1CC[C@@H](C(=O)Nc2ccccc2)CN1c1cc(-c2ccc3c(N)n[nH]c3c2)nc(N)n1 , assay on TYK2(JH2domain-pseudokinase), is 27

Query Cc1cccc(-c2nc(Nc3ccc4[nH]nnc4c3)c3ccccc3n2)n1 on TYK2(JH2domain-pseudokinase); %Inh returned: 42

Oc1ccc2ncnc(Nc3ccc(OCc4ccccc4)cc3)c2c1 tested on TYK2(JH2domain-pseudokinase) gave %Inh: 0

The compound Clc1cc(Nc2ncnc3cc[nH]c23)ccc1OCc1ccccn1 on TYK2(JH2domain-pseudokinase): %Inh was 28

Here Fc1ccc(Nc2nccc(-c3c(-c4ccc(Cl)cc4)nn4ncccc34)n2)cc1F was tested on TYK2(JH2domain-pseudokinase), and its %Inh came to 40

So the reported %Inh for Cl.O=S(=O)(c1cccc(F)c1)c1ccc(Nc2ncnc3cc(Br)sc23)cc1Cl , on TYK2(JH2domain-pseudokinase), turned out to be 0

Observed %Inh, TYK2(JH2domain-pseudokinase), COC(=O)c1cccc(NC(=O)NCCNc2ccnc(Nc3ccc(F)cc3)n2)c1 : 20

Lab note: compound Cc1ccc(NC(=O)c2cccc(C#N)c2)cc1-c1ccc(C(=O)Nc2ccncc2)cc1 tested on TYK2(JH2domain-pseudokinase); recorded %Inh was 13

Entry COc1ccc(-c2oc3ncnc(N)c3c2-c2ccc(OC)cc2)cc1 , tested on TYK2(JH2domain-pseudokinase), has a reported %Inh of 98.9

The observed %Inh for Fc1cccc(COc2ccc(Nc3ncnc4sc(-c5ccc[nH]5)cc34)cc2Cl)c1 when tested with TYK2(JH2domain-pseudokinase) stands at 10

# NC(=O)c1sc(-n2cnc3ccccc32)cc1OCc1ccccc1F with TYK2(JH2domain-pseudokinase): %Inh is 28

Field %Inh (system: TYK2(JH2domain-pseudokinase)) for entry COc1ccc(NC(=O)c2ccc(-c3cc(-c4nnc(C)o4)ccc3C)cc2)cc1 = 22

====

# Tested on: CSNK1G2
# condition: concentration: 1 μM, replicates: in singlicate; n = 1
Listed below: %Inh values for each entry.
A number alone suffices; assume %.

molecule: O=C(NCCCN1CCCC1=O)c1cnc(NCc2cc(Cl)ccc2Cl)nc1NC1CCNCC1
measurement: 0

Alright, here's another molecule for you.
Input COc1cc2c(Nc3cccc(NC(=O)c4ccccc4)c3)ncnc2cc1OCCCN1CCOCC1 [GSK223810] . Output %Inh: 0

====

# System: MAPKAPK2
# condition: concentration: 1 μM, replicates: in singlicate; n = 1
%Inh: recorded values
Record the value in %, omitting the unit from your answer.

Solved entries:
molecule: C[C@@H]1CCN(C(=O)CO)C[C@@H]1N(C)c1ncnc2[nH]ccc12
%Inh (%): 0

molecule: CN1CCC(n2cnc(-c3ccc(F)cc3)c2-c2ccnc(NC3CCNCC3)n2)CC1
%Inh (%): 8

molecule: Nc1nccc2scc(-c3ccc4c(c3)CCN4C(=O)Cc3cc(F)ccc3F)c12
%Inh (%): 20

molecule: O=C(NCCCN1CCCC1=O)c1cnc(NCc2cc(Cl)ccc2Cl)nc1NC1CCNCC1
%Inh (%): 0

molecule: CSc1nn2c(=O)cc(N3CCOCC3)nc2n1Cc1cccc(Cl)c1Cl
%Inh (%): 22

molecule: Cl.Cl.c1ccc(-c2cc3ccncc3cc2OC2CCNCC2)cc1
%Inh (%): 25

Measured %Inh, Cl.Fc1ccccc1COc1ccc(Nc2ncnc3ccc(-c4nnc(C(F)(F)F)o4)cc23)cc1Cl : 0

The value of %Inh measured for the molecule CCn1c(-c2ccncc2)nc2cnccc21 turned out to be 16

Lab note: measured %Inh of Oc1ccc2ncnc(Nc3ccc(OCc4ccccc4)cc3)c2c1 was 16

Just so you know, measured %Inh for O=c1cc(N2CCOCC2)nc2n(Cc3cccc(Cl)c3)ccn12 came out at 40

// Cn1ccc2ncnc(Oc3ccc(NC(=O)Nc4cccnc4)c(Cl)c3)c21 : %Inh value = 0

The molecule COC(=O)c1cccc(NC(=O)NCCNc2ccnc(Nc3ccc(F)cc3)n2)c1 showed %Inh equal to 24

====

# Tested on: EPHA5
# condition: concentration: 1 μM, replicates: in singlicate; n = 1
readout.kind: %Inh (%)
Numbers only; they are read as %.

item.smiles: CC(=O)Nc1n[nH]c2ncc(-c3ccccc3)cc12
test.system: EPHA5
%Inh / %: 15

item.smiles: COC(=O)c1c(-c2ccccc2)c2cc(Cl)ccc2c(=O)n1Cc1ccc(S(C)(=O)=O)cc1
test.system: EPHA5
%Inh / %: 4

item.smiles: Cc1ccc(O)cc1Nc1cc(C(F)(F)F)nc2ccc(-c3ccncc3)cc12
test.system: EPHA5
%Inh / %: 3

item.smiles: NC(=O)c1sc(-n2cnc3ccccc32)cc1OCc1ccccc1F
test.system: EPHA5
%Inh / %: 0

item.smiles: COc1ccc(-c2oc3ncnc(N)c3c2-c2ccc(OC)cc2)cc1
test.system: EPHA5
%Inh / %: 0

item.smiles: CC(C)(C)c1ccc(-n2cnc3c(N)ncnc32)cc1
test.system: EPHA5
%Inh / %: 0

%Inh recorded for this molecule, Clc1cc(Nc2ncnc3cc[nH]c23)ccc1OCc1ccccn1 , is 14

Kindly note the recorded %Inh for O=C(Nc1ccccc1)Nc1ccc(Oc2ccc3nccn3n2)cc1 , which is 0

Noted for Cc1ccc(C)c(NC(=O)NCCNc2ccnc(Nc3ccc(F)cc3)n2)c1 : its %Inh reads 0

====

# Tested on: ACVR2B
# condition: concentration: 1 μM, replicates: in singlicate; n = 1
readout.kind: %Inh (%)
API: value field is a number in %; no unit string.

See these solved cases before continuing.
item.smiles: Cn1cc(-c2ccc3c(c2)CCN3C(=O)Cc2cccc(C(F)(F)F)c2)c2c(N)ncnc21
measurement: 1
//
item.smiles: Nc1nc(-c2ccc3c(N)n[nH]c3c2)cc(N2CCC[C@@H](C(=O)Nc3ccccc3)C2)n1.O=C(O)C(F)(F)F.O=C(O)C(F)(F)F
measurement: 0

Briefly, %Inh measured for O=C(Nc1ccccc1)Nc1ccc(Oc2ccc3nccn3n2)cc1 : 9

Given item Nc1nc(-c2cccnc2)c(-c2ccnc3ccccc23)s1 , the value recorded as its %Inh is 0

====

# Tested on: NEK3
# condition: concentration: 1 μM, replicates: in singlicate; n = 1
readout.kind: %Inh (%)
Entry rule: numbers only, all in %.

Consider the worked cases shown below.
compound: CSc1nn2c(=O)cc(N3CCOCC3)nc2n1Cc1cccc(Cl)c1Cl
readout.kind: %Inh
measurement: 1
--
compound: CC(C)(C)c1ccc(-n2cnc3c(N)ncnc32)cc1
readout.kind: %Inh
measurement: 0
--
compound: COc1ccc(NC(=O)Nc2ccc(C)c(-c3ccc(C(=O)Nc4ccncc4)cc3)c2)cc1
readout.kind: %Inh
measurement: 10
--
compound: CS(=O)(=O)CCNCc1ccc(-c2ccc3ncnc(Nc4ccc(OCc5ccccc5)c(Cl)c4)c3c2)o1.Cl
readout.kind: %Inh
measurement: 0
--
compound: Cl.c1ccc(Cn2ccc3cc(Nc4ncnc5ccccc45)ccc32)cc1
readout.kind: %Inh
measurement: 12
--
compound: Cc1ccc(C)c(NC(=O)NCCNc2ccnc(Nc3ccc(F)cc3)n2)c1
readout.kind: %Inh
measurement: 0
--
compound: COc1ccc(NC(=O)c2ccc(-c3cc(-c4nnc(C)o4)ccc3C)cc2)cc1
readout.kind: %Inh
measurement: 5
--
compound: N#Cc1ccc(Oc2ccc(Nc3ncnc4cc[nH]c34)cc2Cl)cc1
readout.kind: %Inh
measurement: 26

// moving on: another record for %Inh
Sample CCCc1ccc(S(=O)(=O)NC2CCN(c3ccnc(Nc4ccc(OC)cc4)n3)C2)cc1 (stereo not drawn) , system: NEK3. Its %Inh is 1

====

# Tested on: WNK2
# condition: concentration: 1 μM, replicates: in singlicate; n = 1
Measured %Inh values are reported for all entries that follow.
Kindly answer with a numeric value in %, unit omitted.

# %Inh (compound: CC(C)(C)c1ccc(-n2cnc3c(N)ncnc32)cc1 ) is 0

====

Measured %Inh, listed per entry for reference.
# Test system: PAK4
# condition: concentration: 1 μM, replicates: in singlicate; n = 1
Respond numerically; units are % and should not be typed.

item.smiles: Oc1ccc2ncnc(Nc3ccc(OCc4ccccc4)cc3)c2c1
units.text: %
%Inh: 0
--
item.smiles: Nc1nc(-c2ccccn2)c(-c2ccnc3ccccc23)s1
units.text: %
%Inh: 0
--
item.smiles: Fc1ccc(-c2ncn(CCCNCc3ccccc3)c2-c2ccncc2)cc1
units.text: %
%Inh: 11
--
item.smiles: COc1ccc(NC(=O)Nc2ccc(C)c(-c3ccc(C(=O)Nc4ccncc4)cc3)c2)cc1
units.text: %
%Inh: 0
--
item.smiles: O=C(Nc1ccccc1)Nc1ccc(Oc2ccc3nccn3n2)cc1
units.text: %
%Inh: 0

Here COc1cc2ncnc(Nc3ccc(OCc4ccccc4Br)c(Cl)c3)c2cc1OC.Cl was tested on PAK4, and its %Inh came to 0

Reported PAK4 %Inh for item CCC(CC)(CC)n1cnc2c(N)ncnc21 was 0
